Target: RSK2 (Homo sapiens)
Sequence (P51812 whole entry): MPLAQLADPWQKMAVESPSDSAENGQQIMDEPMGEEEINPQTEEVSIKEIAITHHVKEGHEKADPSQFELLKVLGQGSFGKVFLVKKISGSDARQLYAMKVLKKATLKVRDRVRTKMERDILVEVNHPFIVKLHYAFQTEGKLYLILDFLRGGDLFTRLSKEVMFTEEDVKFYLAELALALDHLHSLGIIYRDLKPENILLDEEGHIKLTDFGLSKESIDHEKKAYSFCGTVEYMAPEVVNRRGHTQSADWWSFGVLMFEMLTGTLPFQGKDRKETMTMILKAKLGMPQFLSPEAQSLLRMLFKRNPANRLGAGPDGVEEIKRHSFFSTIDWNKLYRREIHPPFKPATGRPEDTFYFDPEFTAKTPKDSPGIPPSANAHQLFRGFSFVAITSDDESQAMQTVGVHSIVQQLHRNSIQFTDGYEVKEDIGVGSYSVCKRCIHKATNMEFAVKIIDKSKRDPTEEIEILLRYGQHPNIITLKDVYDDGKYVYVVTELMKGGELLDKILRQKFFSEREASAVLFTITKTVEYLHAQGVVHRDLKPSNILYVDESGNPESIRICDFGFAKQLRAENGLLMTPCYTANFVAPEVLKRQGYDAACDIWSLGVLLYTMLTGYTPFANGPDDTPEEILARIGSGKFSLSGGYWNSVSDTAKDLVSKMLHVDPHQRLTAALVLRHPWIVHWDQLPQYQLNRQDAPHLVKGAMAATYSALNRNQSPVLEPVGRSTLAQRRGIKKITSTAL
PARAMETER MEASURED: pIC50
Numbers only, as −log10 of the molar value.

Data request: Endpoint output: pIC50 of c1ccc2c(CNNc3ncnc4sc5c(c34)CCCC5)c[nH]c2c1 [B32B3] . Value?
Data returned: 5.07

====

Molecular target: VRK2 (Homo sapiens, UniProt Q86Y07)
Sequence (Q86Y07 whole entry): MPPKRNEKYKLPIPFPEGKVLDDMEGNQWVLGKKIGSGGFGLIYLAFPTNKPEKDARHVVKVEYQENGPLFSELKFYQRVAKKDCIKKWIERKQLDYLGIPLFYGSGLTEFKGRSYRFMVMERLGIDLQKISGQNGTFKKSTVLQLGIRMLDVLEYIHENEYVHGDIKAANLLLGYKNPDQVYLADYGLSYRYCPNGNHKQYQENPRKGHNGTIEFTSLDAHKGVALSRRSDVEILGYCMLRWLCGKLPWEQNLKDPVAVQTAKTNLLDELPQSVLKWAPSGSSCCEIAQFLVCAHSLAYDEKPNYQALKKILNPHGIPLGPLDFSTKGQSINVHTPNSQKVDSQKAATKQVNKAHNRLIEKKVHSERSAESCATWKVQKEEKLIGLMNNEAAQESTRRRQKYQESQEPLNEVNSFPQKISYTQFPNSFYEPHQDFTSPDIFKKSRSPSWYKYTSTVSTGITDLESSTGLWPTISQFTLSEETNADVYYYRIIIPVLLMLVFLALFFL
PARAMETER MEASURED: IC50

Data request: Endpoint output: IC50 of c1ccc2c(CNNc3ncnc4sc5c(c34)CCCC5)c[nH]c2c1 [B32B3] . Value?
Data returned: > 10 µM

====

Target: AKT3 (Homo sapiens, UniProt Q9Y243)
Sequence (Q9Y243 whole entry): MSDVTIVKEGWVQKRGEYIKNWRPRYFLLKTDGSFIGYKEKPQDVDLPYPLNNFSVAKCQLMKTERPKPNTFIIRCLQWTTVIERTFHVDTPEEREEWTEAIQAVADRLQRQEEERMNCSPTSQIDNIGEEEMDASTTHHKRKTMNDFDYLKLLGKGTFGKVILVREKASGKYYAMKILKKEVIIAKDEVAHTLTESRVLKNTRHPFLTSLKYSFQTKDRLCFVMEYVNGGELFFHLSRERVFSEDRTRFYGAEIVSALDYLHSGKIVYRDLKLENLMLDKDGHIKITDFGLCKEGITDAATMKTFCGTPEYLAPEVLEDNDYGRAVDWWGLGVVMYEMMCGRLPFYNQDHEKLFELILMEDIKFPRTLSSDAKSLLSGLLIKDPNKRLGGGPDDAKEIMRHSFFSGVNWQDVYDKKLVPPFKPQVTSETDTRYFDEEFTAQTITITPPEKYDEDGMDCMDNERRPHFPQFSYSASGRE
Experiment: Kinase selectivity panel
Type: biochemical
PARAMETER MEASURED: IC50

Data request: Endpoint output: IC50 of c1ccc2c(CNNc3ncnc4sc5c(c34)CCCC5)c[nH]c2c1 . Value?
Data returned: > 10 µM
